protocol.description: solubility in water
Type: physicochemical
observation.type: solubility

# get_value(readout='solubility', item= CC#C[C@]1(OC(=O)CCC(=O)O)CC[C@H]2[C@@H]3CCC4=CC(=O)CCC4=C3[C@@H](c3ccc(N(C)C(C)C)cc3)C[C@@]21C )
> 250 mg/mL

====

test.target: Progesterone receptor (Oryctolagus cuniculus)
Construct: from tissue; host or cells: uterus cytosol (105,000 g supernatant) of impuberal female rabbits treated with estradiol
Sequence (P06186 whole entry): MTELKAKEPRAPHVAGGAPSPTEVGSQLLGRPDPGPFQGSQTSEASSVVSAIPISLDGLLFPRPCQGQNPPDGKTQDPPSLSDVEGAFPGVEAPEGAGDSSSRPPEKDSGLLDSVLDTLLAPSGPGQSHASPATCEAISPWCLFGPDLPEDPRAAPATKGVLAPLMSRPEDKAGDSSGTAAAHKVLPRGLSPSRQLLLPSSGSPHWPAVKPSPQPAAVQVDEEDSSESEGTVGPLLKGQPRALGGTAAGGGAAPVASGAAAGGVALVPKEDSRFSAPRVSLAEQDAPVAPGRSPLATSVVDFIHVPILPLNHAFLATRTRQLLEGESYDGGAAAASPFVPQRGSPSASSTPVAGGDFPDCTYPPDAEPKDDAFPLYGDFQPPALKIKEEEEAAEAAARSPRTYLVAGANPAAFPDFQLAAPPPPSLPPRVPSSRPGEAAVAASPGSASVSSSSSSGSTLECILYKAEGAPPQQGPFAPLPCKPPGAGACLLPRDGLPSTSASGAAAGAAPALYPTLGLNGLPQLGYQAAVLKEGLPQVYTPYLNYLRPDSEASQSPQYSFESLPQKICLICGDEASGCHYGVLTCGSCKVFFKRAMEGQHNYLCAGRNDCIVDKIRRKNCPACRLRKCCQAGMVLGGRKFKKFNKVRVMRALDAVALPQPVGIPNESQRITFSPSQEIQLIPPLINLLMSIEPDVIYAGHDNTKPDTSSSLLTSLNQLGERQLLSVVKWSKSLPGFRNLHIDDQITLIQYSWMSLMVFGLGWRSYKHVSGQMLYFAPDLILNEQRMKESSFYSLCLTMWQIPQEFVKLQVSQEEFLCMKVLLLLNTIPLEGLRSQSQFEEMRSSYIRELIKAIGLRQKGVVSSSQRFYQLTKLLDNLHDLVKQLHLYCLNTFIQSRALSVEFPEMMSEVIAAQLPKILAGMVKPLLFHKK
protocol.description: relative bond affinity for the progesterone receptor of rabbit's uterus
Type: binding
experimental.context: 24 hours incubation at 0° C.; tritiated R 5020 5 nM; RBA=100 (CH)/(CX), reference cold progesterone
Below, each entry is listed with its recorded relative bond affinity (RBA), Progesterone 24H.
# respond with the number and nothing more

Example molecules with recorded relative bond affinity (RBA), Progesterone 24H:
- CN(C)c1ccc([C@H]2C[C@@]3(C)[C@@H](CC[C@@]3(O)/C=C\COC(=O)CCC(=O)O)[C@@H]3CCC4=CC(=O)CCC4=C32)cc1: 88
- CN(C)c1ccc([C@H]2C[C@@]3(C)[C@@H](CC[C@@]3(O)C#CCOC(=O)CCC(=O)O)[C@@H]3CCC4=CC(=O)CCC4=C32)cc1: 26

Now look at this one.
Requested read-out: relative bond affinity (RBA), Progesterone 24H. Entry: CN(C)c1ccc([C@H]2C[C@@]3(C)[C@@H](CC[C@]3(C#CCl)OC(=O)CCC(=O)O)[C@@H]3CCC4=CC(=O)CCC4=C32)cc1
13
